Tested on: T1, UNK ZnF1-6 (called full-length) (human, UniProt Q9C0B0 30-357)
T1 sequence: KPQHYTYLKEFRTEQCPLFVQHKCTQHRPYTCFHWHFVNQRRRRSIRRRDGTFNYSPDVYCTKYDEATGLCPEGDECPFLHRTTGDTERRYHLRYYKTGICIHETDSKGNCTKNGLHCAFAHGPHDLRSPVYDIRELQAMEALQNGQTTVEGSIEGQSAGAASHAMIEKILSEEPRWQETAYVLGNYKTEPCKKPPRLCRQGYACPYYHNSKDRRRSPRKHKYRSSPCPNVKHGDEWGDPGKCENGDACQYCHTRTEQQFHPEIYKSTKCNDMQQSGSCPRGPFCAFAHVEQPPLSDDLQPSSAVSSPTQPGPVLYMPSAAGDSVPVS
Method summary: nsRBNS (natural sequence RNA bind-n-seq); RBNS binding buffer (assumed for nsRBNS): 25 mM Tris pH 7.5, 150 mM KCl, 3 mM MgCl2, 0.01% Triton X-100, 500 ug/ml BSA, 20 U/ml SUPERase-In, 4 C; UNK is unkempt and MSI1 is Musashi-1; names of the RNAs are library labels; protein concentration not given here; high values mean tight binding
Whole data set: some 5,800 sequences, median “enrichment r” near 0.68, cut for the highest 2% near 11. These entries were drawn from the full list.
Assay readout: binding signal (enrichment R)
Form entry: value (enrichment R) — number only.

* chr2:1632407:1632508:-|3pUTR|ENSG00000130508|msi1|total|mutant (ssRNA) RNA: GGGAGUUCUACAGUCCGACGAUCUUGGUAAGUGAUUGAUAAAAAUUGGUUGGUGUUUCAUGACAUGUGGACUUCUUUUGAAACCGCAAGUCAAAUGCCGUGACCAAAUUGUGGAAGAGAUUUCUGUCAAACCGGAAAUGUGUACAACAGAGGAUUGAGCAUCA | 0.207
* chr20:18487131:18487232:-|3pUTR|ENSG00000089050|msi1|FALSE|unique (ssRNA) RNA: GGGAGUUCUACAGUCCGACGAUCAAAUAUAGUAACCAGUAACCACAGCUAGCUGUAAAAUUGAAAAUUCAGUUCAGUCAAACUAGCCAUAUUUCAAGUGCUCAACAGCCACUGGUGGCUAUUGGUUACCUUACUGACCAGCCACAACAGAGGAUUGAGCAUCA | 0.375

Below: the item to evaluate.
Incoming: binding signal lookup needed for chr12:123761472:123761573:+|3pUTR|ENSG00000185344|unk|total|mutant (ssRNA) RNA: GGGAGUUCUACAGUCCGACGAUCAAUAAGGCAGUUUGAACGAACAGUCUUCCCACAGUCAGGCCAUUUUUGCUGAUUUGGUUCCGAAUUUUCAGAAAUACUCCGUACACUCCACCUGUUCUUUGAUGGGAAUAUCUAAGAAGGCAACAGAGGAUUGAGCAUCA , thanks.
Outgoing: 0.271

meta.source: paper PMC12136788
